target: GlcNAc(b1-3)Gal(b1-4)GlcNAc(b1-3)Gal(b1-4)GlcNAc(b1-2)[GlcNAc(b1-3)Gal(b1-4)GlcNAc(b1-3)Gal(b1-4)GlcNAc(b1-6)]Man(a1-6)[GlcNAc(b1-3)Gal(b1-4)GlcNAc(b1-3)Gal(b1-4)GlcNAc(b1-2)Man(a1-3)]Man(b1-4)GlcNAc(b1-4)[Fuc(a1-6)]GlcNAc; assay: glycan array binding signal (z-score within array); higher = stronger binding; details: glycan notation: IUPAC condensed, linker removed
Many of the other results were omitted from the sample, so the strongest signals are more common in it than they were.
assay_endpoint: glycan array binding signal (z-score)
Give only the figure.

Req: Data request, read-out glycan array binding signal (z-score), for LlpB (Pseudomonas fluorescens) (protein) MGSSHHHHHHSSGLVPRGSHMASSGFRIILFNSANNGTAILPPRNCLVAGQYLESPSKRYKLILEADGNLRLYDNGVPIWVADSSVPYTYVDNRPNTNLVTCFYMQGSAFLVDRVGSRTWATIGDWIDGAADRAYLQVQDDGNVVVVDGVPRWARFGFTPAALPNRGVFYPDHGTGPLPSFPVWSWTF
Resp: 0.375

Req: Reported glycan array binding signal (z-score), binder EULS2 M4 (Oryza sativa) (protein) MVYCRANPNYAMTARNGAVVLAPANPKDEYQHWIKDMRWSTSIKDEEGYPAFALVNKATGQAIKHSLGQSHPVRLVPYNPEVMDESVLWTESRDVGNGFRCIRMVNNIYLNFDAFHGDKYHGGVRDGTDIVLWKWCEGDSLRWKIQPYYILEQKLISEEDLNSAVDHHHHHH : ____
Resp: -0.364
